- Test system: UO-31 renal
- protocol_notes: NCI tumour cell line growth inhibition, 48 h
Please provide measured TGI for the entries that follow.
All answers are understood in µM, so give the number only.

Q. Give reported TGI value for N#CC(C#N)=C1C(=Cc2ccc(OCCCCCCCCCCSSCCCCCCCCCCOc3ccc(C=C4C(=C(C#N)C#N)c5ccccc5C4=C(C#N)C#N)cc3)cc2)C(=C(C#N)C#N)c2ccccc21
A. 40.2

Q. Specify measured TGI for O=C(Nc1ccccc1)OCCN=C1c2ccccc2C(Br)C(Br)c2ccccc21 (stereo not drawn) .
A. 3.61

Q. Please report the measured TGI for Cn1ccnc1C(=O)/C=C/c1ccc(CC(=O)Nc2ccc(Br)cc2)cc1
A. 4.39

Q. Using the record for CCOC(=O)C(Sc1ccccc1)c1c(OC)cc(=O)oc1/C=[N+](/[O-])c1ccc(N(C)C)cc1 (stereo not drawn) , state its measured TGI.
A. 41.9
